The values you see were collected from the supplement of paper PMC10567573.

B1: MLH1 (parent)
chain: YNIATRRKALKNPSEEYGKILEVV

variants of: B1; test: protein stability index of a GFP-peptide fusion (GPS, HEK-293T) (PSI 1-6); higher = more stable; conditions: c terminus: a fixed tail appended;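 note: lentivirally expressed fusions sorted by FACS into six bins by GFP to DsRed ratio, PSI derived from sequencing read proportions per bin multiplied by bin number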
Can you tell me protein stability index for the items I'm about to list?
Numbers only.

Some solved cases for reference:
sequence_content="YNIATRRKALNNPSEEYGKILEVV [K11N]" measurement=2.69
sequence_content="VNIATRRKALKNPSEEYGKILEVV [Y1V]" measurement=2.76
sequence_content="YNIATRRKALKNPSEEYTKILEVV [G18T]" measurement=2.19
sequence_content="YNIATRRKALKNPSEEYGKILEVH [V24H]" measurement=3.11
sequence_content="YNIATRRKALKNPSEEYGKINEVV [L21N]" measurement=4.33
sequence_content="YNIATRRKVLKNPSEEYGKILEVV [A9V]" measurement=2.55
sequence_content="YNIATRRKALKNPSEETGKILEVV [Y17T]" measurement=3.72
sequence_content="YNIAPRRKALKNPSEEYGKILEVV [T5P]" measurement=2.82

Please give protein stability index, item by item, for the list that follows.
1. YNIATRRKSLKNPSEEYGKILEVV [A9S]
2. YNIATRRLALKNPSEEYGKILEVV [K8L]
3. YNIATRRKALKNPSEEYGKIDEVV [L21D]

1. 2.93
2. 1.99
3. 4.42

Please give protein stability index, item by item, for the list that follows.
1. YNIATRRKALKWPSEEYGKILEVV [N12W]
2. YNIATRRKALKNPSEEYGKILEVA [V24A]
3. YNIATRRKALKNKSEEYGKILEVV [P13K]
4. YNIATRRKALKNPSEEYGKELEVV [I20E]
5. YNIATSRKALKNPSEEYGKILEVV [R6S]
6. MNIATRRKALKNPSEEYGKILEVV [Y1M]
7. YNIATRRKALKNPSEEYGKILEVK [V24K]

1. 1.94
2. 3.79
3. 3.19
4. 3.54
5. 2.7
6. 2.76
7. 3.77

Please give protein stability index, item by item, for the list that follows.
1. DNIATRRKALKNPSEEYGKILEVV [Y1D]
2. YNIATRRKALKNPSEEYGKILEAV [V23A]
3. YNIATRRKALKSPSEEYGKILEVV [N12S]
4. YNIATRRKALENPSEEYGKILEVV [K11E]
5. YNIATRRKALKNPSYEYGKILEVV [E15Y]
6. ENIATRRKALKNPSEEYGKILEVV [Y1E]

[3.69, 3.69, 2.76, 3.48, 2, 3.55]

Please give protein stability index, item by item, for the list that follows.
1. YNIATRRKALFNPSEEYGKILEVV [K11F]
2. YNIATRRKALKNPSEEYGKILERV [V23R]
3. YNIATRRKALKNPSEEYGKILEVF [V24F]
4. YNNATRRKALKNPSEEYGKILEVV [I3N]
5. YNIATRRKLLKNPSEEYGKILEVV [A9L]

1.95
3.22
2.98
3.29
2.17
